Assay: Aqueous solubility / BCS class
Assay type: physicochemical
Conditions: aqueous media, aqueous buffer; across the typical physiological pH range of 2-8
observed-property: solubility

Name the recorded solubility for Cc1ccc(-n2nc(C(C)(C)C)cc2NC(=O)NCc2cc(F)ccc2Oc2ccc3c(cnn3CCO)c2)cc1 .
< 10 µg/mL
